target: CD63 on cells (human) (UniProt P08962)
Sequence (P08962 2-238): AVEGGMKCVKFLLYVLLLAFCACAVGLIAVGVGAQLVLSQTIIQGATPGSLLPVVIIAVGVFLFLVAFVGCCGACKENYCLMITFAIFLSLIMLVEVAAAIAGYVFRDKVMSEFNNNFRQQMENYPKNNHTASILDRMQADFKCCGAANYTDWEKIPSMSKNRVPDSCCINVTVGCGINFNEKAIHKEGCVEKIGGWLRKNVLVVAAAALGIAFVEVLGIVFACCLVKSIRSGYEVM
measurement-protocol: cell-based or functional assay
recorded-endpoint: IC50 of cytotoxicity, HCC1954 cells (CellTiter-GLO, 4 days) (µg/mL)
One number for each entry, in µg/mL.

>>> reading("bsCD63xb12-Duo3 with CD63 variant LS52 (bispecific antibody, part only; not given: b12 control arm VH and VL, V domains shown, part only) VH: EVQLQQSGPELVKPGASVKMSCKASGYTFTSYVMHWVRQTPGQGLEWIGYITPYNDGTKYNEKFKGKATLTSDKSSSTAYMELSSLTSEDSAVYYCVGGDNYYYAMDYWGQGTSVTVSAA VL: NIMVTQSPSSLAVSAGEKVTMSCKSSQSVLYHSNQKNYLAWYQQKPGQSPKLLIYWASTRVSGVPDRFTGSGSGTDFTLTISRVQAEDLAVYYCHQYFSSFTFGSGTKLEIKRT")
0.662

Please examine the following record next.
Return reported IC50 of cytotoxicity, HCC1954 cells (CellTiter-GLO, 4 days); argument: bsCD63xb12-Duo3 with CD63 variant LN54H (bispecific antibody, part only; not given: b12 control arm VH and VL, V domains shown, part only) VH: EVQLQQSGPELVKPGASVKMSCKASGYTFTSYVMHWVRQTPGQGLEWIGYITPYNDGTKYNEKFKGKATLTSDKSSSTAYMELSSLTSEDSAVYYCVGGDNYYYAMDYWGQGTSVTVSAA VL: NIMVTQSPSSLAVSAGEKVTMSCKSSQSVLYSSHQKNYLAWYQQKPGQSPKLLIYWASTRVSGVPDRFTGSGSGTDFTLTISRVQAEDLAVYYCHQYFSSFTFGSGTKLEIKRT 1.55
